Quick record of MEAN CpLDH INHIBITION (%) values for recombinant CpLDH protein (Cryptosporidium parvum, UniProt Q9GT92, F198L/K295E/R251K).
Supply the numeric figure in %, leaving out any unit text.

Ask: Please look up its MEAN CpLDH INHIBITION (%): COC(=O)[C@@H]1c2cc3c(c(O)c2[C@@H](OC)C[C@@]1(C)O)C(=O)c1c(O)cc2c(c1C3=O)O[C@H]1O[C@@]2(C)[C@H](O)[C@@H](N(C)C)[C@@H]1O
Reply: -3.42

Ask: Proceed to Cc1ccc(NC(=O)C(=O)CC(=O)c2ccccc2)cc1C
Reply: -16.52

Ask: Queued: C[C@H](CSC(=O)c1ccccc1)C(=O)N1c2ccccc2C[C@H]1C(=O)O
Reply: -8.81

Ask: Also NC(=O)C#CC(N)=O ?
Reply: 0

Ask: Can you handle c1ccc(-c2cccc(-c3ccccn3)n2)nc1 next?
Reply: -48.97

Ask: Query CC1(C)N=C(N)N=C(N)N1c1ccc(OCCCOc2ccccc2)c(Cl)c1.CCS(=O)(=O)O next
Reply: -57.79

Ask: Repeat for the following compound: Cc1c2ccncc2cc2c1[nH]c1ccccc12
Reply: -25.74

Ask: Quick one: CC(=O)NC1C(OCc2ccccc2)OC(CO)C(O)C1OC(C)C(=O)NC(C(=O)NC(CCC(=O)NCCCCNc1c2ccccc2nc2cccc([N+](=O)[O-])c12)C(N)=O)C(C)C (stereo not shown)
Reply: -5.22

Ask: Try the compound Cc1ccc(N=Nc2c(O)ccc3ccccc23)cc1
Reply: -44.71

Ask: Now the compound Nc1ncnc2c([C@@H]3O[C@H](CO)[C@@H](O)[C@H]3O)[nH]nc12
Reply: -35.09

Ask: Then this compound: OCc1ccc(-c2ccc(-c3ccc(CO)s3)o2)s1
Reply: -15.92

Ask: Quick one: [Cl][Hg][c]1ccc2ccccc2c1
Reply: -16.59

Ask: Consider next the compound CC[C@@]1(O)C[C@H](O[C@H]2C[C@H](N(C)C)[C@H](O)[C@H](C)O2)c2c(cc3c(c2O)C(=O)c2c(O)ccc(O)c2C3=O)[C@H]1C(=O)OC in the same way.
Reply: -179.02

Ask: Now try O=C1C(Cl)=C(N2CCN(C3=C(Cl)C(=O)c4ccccc4C3=O)CC2)C(=O)c2ccccc21 .
Reply: -22.69

Ask: Same question, CC1=C(N2CC2)C(=O)C(CO)=C(N2CC2)C1=O this time
Reply: -69.94

Ask: Input COc1cc2c(cc1O)N=CC1CCC(O)N1C2=O (stereo not shown)
Reply: -56.39

Ask: Another compound to look at: CC(C)(C)[Si](C)(C)OCC1CCC(n2cnc3c(N)ncnc32)O1 (stereo not shown)
Reply: -24.91

Ask: And then CCOC(=O)c1sc2[n+](c1C)C(=O)/C(=C/c1ccc([N+](=O)[O-])cc1)S2.[Cl-] , what is it?
Reply: -21.86

Ask: Next compound up: Cc1ccc(S(=O)(=O)ON=C2CC(c3ccccc3)N(C)C(c3ccccc3)C2)cc1 (stereo not shown)
Reply: -39.05

Ask: Next up: CN(C)c1cccc(F)c1C(=O)NC(=O)Nc1ccc(Cl)cc1
Reply: -29.93

Ask: Entry to check: N#CC(=S)Nc1ccc(F)cc1
Reply: -8.49

Ask: Next up: CC(C)c1ccc2nc3ccc(C(=O)NCCN(C)C)cn3c(=O)c2c1
Reply: -31.37

Ask: One more compound: CCCCn1c2c(n(CCCC)c1=S)-c1c(n(CCCC)c(=S)n1CCCC)SSSS2
Reply: -83.75

Ask: Similarly, O=C1N[C@H]2[C@H](O)[C@H](O)[C@@H](O)[C@H](O)[C@@H]2c2cc3c(c(O)c21)OCO3 ?
Reply: -36.89

Ask: For N=C1C=C(N)C(=O)c2[nH]c(=O)ccc21 then?
Reply: -37.64

Ask: Do the same for CC(=O)O[C@@H]1[C@@H](O)[C@H](O[C@H]2[C@H](OC(=O)[C@H]3CC[C@H]4[C@@H](C3)O[C@@]3(C[C@H](OC(=O)/C=C/c5ccccc5)[C@H](C)CO3)[C@]43CO3)O[C@H](C)[C@@H](O)[C@@H]2OC(C)=O)O[C@H](C)[C@H]1O please
Reply: -30.81

Ask: Try O=C1NC(=S)NC(=O)C1C(=O)Nc1ccccc1 next.
Reply: -66.49

Ask: Same again, this time with c1coc(CNc2ncnc3[nH]ncc23)c1
Reply: -4.87

Ask: Consider next the compound NC(=O)c1cn([C@@H]2O[C@H](CO)[C@@H](O)[C@H]2O)c2ncnc(N)c12 in the same way.
Reply: -11.87

Ask: For Clc1ccc(-c2c(C3=NCCCN3)nnn2-c2ccc(Cl)cc2)cc1 then?
Reply: -3.66

Ask: Follow-up entry: COc1nc(N)nc2nc[nH]c12
Reply: -36.91

Ask: CCC[CH2][Sn]1([CH2]CCC)[S]CC[N]1S(=O)(=O)c1ccc(C)cc1 ?
Reply: -29.84

Ask: What about O=C1C=C(Nc2ccccc2C(=O)CC(=O)C(=O)Nc2ccc(Cl)cc2)c2ccccc2C1=O ?
Reply: -12.80

Ask: Next up: O=C1c2ccccc2C(=O)c2nc(-c3ccccc3)c(-c3ccccc3)nc21
Reply: -5.77

====

// endpoint MEAN CpLDH INHIBITION (%) / system recombinant CpLDH protein (Cryptosporidium parvum, UniProt Q9GT92, F198L/K295E/R251K)
Your answer is read as %, so omit the unit and give the number.

Ask: Record request: MEAN CpLDH INHIBITION (%) value, item O=C1C2=Nc3ccccc3C(O)N2c2ccccc21 (stereo not drawn) [NSC292147]
Reply: -13.84

Ask: Same read-out for CCC[CH2][Sn]([CH2]CCC)([CH2]CCC)[O]c1cc(Cl)c(Cl)cc1Cl [NSC164914] ?
Reply: -26.61

Ask: CCOC(=O)/C(=C/c1ccc(N(C)C)cc1)N(CC)CC [NSC643774] ?
Reply: -24.42

Ask: For COC(=O)c1cc(-c2c[nH]cc2C(=O)OCc2ccccc2)cn1S(=O)(=O)c1ccc(C)cc1 [NSC679527] then?
Reply: -27.66

Ask: Now the compound Cc1cc(N(CCCl)CCCl)ccc1/C=N/NC(=O)Cc1cc(=O)oc2cc(O)ccc12 [NSC79688]
Reply: 40.15

Ask: Record: CCCCCC/C=C\CCCCCCCCCc1cccc(OC)c1O [NSC617540]
Reply: -6.79

Ask: Ok, now O=[N+]([O-])[O-].O=[N+]([O-])[O-].O=[N+]([O-])[O-].[Ga+3] [NSC15200]
Reply: -34.76

Ask: Input Cc1ccc(C)c2c(N=Nc3ccccc3[N+](=O)[O-])c(O)[nH]c12 [NSC118732]
Reply: -7.91

Ask: Lookup CN(C)[C@@H]1C(=O)C(C(N)=O)=C(O)[C@@]2(O)C(=O)C3=C(O)c4c(O)cccc4C[C@H]3C[C@@H]12 [NSC51812]
Reply: -26.06

Ask: What would you report for O=C1NC(c2cccc3ccccc23)Nc2ccccc21 (stereo not drawn) [NSC145669] ?
Reply: 0.07

Ask: One more compound: C=C(NC(=O)C(=C)NC(=O)c1csc(C2=N[C@@H]3c4csc(n4)[C@H]4NC(=O)c5csc(n5)[C@H]([C@](C)(O)[C@@H](C)O)NC(=O)[C@H]5CSC(=N5)/C(=C/C)NC(=O)[C@H]([C@@H](C)O)NC(=O)c5csc(n5)[C@]3(CC2)NC(=O)[C@H](C)NC(=O)C(=C)NC(=O)C(=C)NC(=O)[C@H](C(C)C)N[C@@H]2C=Cc3c([C@H](C)O)cc(nc3[C@H]2O)C(=O)O[C@@H]4C)n1)C(N)=O [NSC285116]
Reply: -2.26

Ask: And then CC(C)c1oc(=O)cc2c1[C@@H](O)[C@H]1OC(=O)[C@@]3(C)[C@@H](O)[C@H]4O[C@H]4[C@@]2(C)[C@@H]13 [NSC211500] , what is it?
Reply: -13.24

Ask: Quick one: Nc1ccccc1N [NSC5354]
Reply: 0

Ask: Try this compound too: CCOC(=O)NC(Nc1ccc(F)cc1)(C(=O)OCC)C(F)(F)F (stereo not drawn) [NSC684845]
Reply: -7.56

Ask: One more compound: COc1cc2c(c(OC)c1OC)-c1c(cc3c(c1OC)OCO3)CC(C)C(C)(O)C2OC(=O)c1ccccc1 (stereo not drawn) [NSC330516]
Reply: -37.93

====

ASSAYED SYSTEM: recombinant CpLDH protein (Cryptosporidium parvum, UniProt Q9GT92, F198L/K295E/R251K)
MEASUREMENT CONTEXT: read-out: IC50, inhibition of recombinant CpLDH activity
QUANTITY MEASURED: IC50 (µM)
Unit µM implied. Number only.

Ask: Look up IC50: O=C1c2ccccc2C(=O)c2c(O)c(O)cc(O)c21 [NSC10447]
Reply: 46.3

Reference source for all entries: paper PMC6687188
